# Test system: Danio rerio embryo (fli1:egfp)
# MEASUREMENT DESCRIPTION: heart rate at 72 hpf (beats per minute); higher = faster heart rate
# RUN CONDITIONS: 0.39 µM; exposure: 5-72 hpf
EXPERIMENTAL READOUT: heart rate at 72 hpf

Check out these entries, answers already filled in.
* CO/N=C(/C1=NOCCO1)c1ccccc1Oc1ncnc(Oc2ccccc2Cl)c1F | 194
* C#CCN1C(=O)COc2cc(F)c(N3C(=O)C4=C(CCCC4)C3=O)cc21 | 155
* CCc1nn(C)c(C(=O)NCc2ccc(C(C)(C)C)cc2)c1Cl | 166
* CCOC(=O)COc1cc(-n2ncc(C(F)(F)F)c(C)c2=O)c(F)cc1Cl | 180

// switching to the query compound
QUERY: Name the recorded heart rate at 72 hpf for CC(C)[C@H](C(=O)O[C@H](C#N)c1cccc(Oc2ccccc2)c1)c1ccc(Cl)cc1 [Esfenvalerate] .
RESULT: 198

Source: the supplement of paper PMC4121296
